target: hCB1 (Homo sapiens); experiment: Tango β-arrestin-2 recruitment, HTLA cells, CB1R; type: cell-based; set-up: expressed in transfected cells; host or cells: HTLA cells (gift of R. Axel), transient transfection; settings: hCB1; read-out: Tango ß-arrestin recruitment EC50

compound | censorSymbol | EC50 [nM]
COC(=O)[C@@H]1[C@@H]2CCC[C@@H]2CN1C(=O)c1cc(C)n(-c2cccc(C(F)(F)F)c2)n1 | > | 10000
COC(=O)C(C)(NC(=O)c1cc(C)n(-c2cccc(C(F)(F)F)c2)n1)c1cccs1 (stereo not shown) | = | 10.7
COC(=O)[C@@H]1[C@@H]2CCC[C@@H]2CN1C(=O)c1cc(C)n(-c2cccc(Cl)c2)n1 (racemic) | > | 10000
COC(=O)C(NC(=O)c1cc(C)n(-c2cccc(C(F)(F)F)c2)n1)c1cccs1 (stereo not shown) | = | 819

* * *

molecular target: UniProt:P21554; experiment: bioSensAll ebBRET signaling profiling, hCB1; assay type: cell-based; set-up: host or cells: HEK293SL cells, transient PEI transfection; settings: Log [Compound] (M) -8; single replicate values, FigS6a
The following molecules are shown together with reported GoB hCB1 values.

molecule | GoB hCB1
Cc1cc(C(=O)NC(c2ccccc2)c2ccco2)nn1-c1cccc(C(F)(F)F)c1 (stereo not shown) [‘1081] | 4.935
Cc1cc(C(=O)N2CC3(CCC3)[C@@H]2[C@@H]2CCCO2)nn1-c1cccc(C(F)(F)F)c1 [‘3386] | 1.158
COc1cccc(C(NC(=O)c2cc(C)n(-c3cccc(C(F)(F)F)c3)n2)c2ccco2)c1 (stereo not shown) [‘1087] | 1.8778
Cc1cc(C(=O)N(C)C(c2ccco2)c2ccco2)nn1-c1cccc(C(F)(F)F)c1 [‘4388] | -1.107

* * *

The following molecules are shown together with reported Gi1 hCB1 response values.
target: hCB1 (Homo sapiens); assay: bioSensAll ebBRET signaling profiling, hCB1; assay type: cell-based; set-up: host or cells: HEK293SL cells, transient PEI transfection; settings: Gi1 biosensor; Log [Compound] (M) -5.05788

molecule | Gi1 hCB1 response
Cc1cc(C(=O)NC(c2ccco2)c2ccco2)nn1-c1cccc(C(F)(F)F)c1 | 98.6907
Cc1cc(C(=O)N2CC3(CCC3)[C@@H]2[C@H]2CCCO2)nn1-c1cccc(C(F)(F)F)c1 (single isomer, unassigned) | -21.811
Cc1cc(C(=O)NC(c2ccccc2)c2ccco2)nn1-c1cccc(C#N)c1 (stereo not shown) | 44.5052
COC(=O)C(NC(=O)c1cc(C)n(-c2cccc(F)c2)n1)c1cccs1 (stereo not shown) | 74.9216

* * *

The following compounds are shown together with reported Gi1 hCB1 values.
biological target: hCB1 (Homo sapiens); experiment: bioSensAll ebBRET signaling profiling, hCB1; format: cell-based; set-up: host or cells: HEK293SL cells, transient PEI transfection; conditions: Log [Compound] (M) -8.68787; single replicate values, FigS6a
measurementKind: Gi1 hCB1

compound | testValue
COC(=O)C(NC(=O)c1cc(C)n(-c2cccc(C(F)(F)F)c2)n1)c1cccs1 (centres unmarked) [‘60154] | 6.5794
COC(=O)[C@@H]1[C@@H]2CCC[C@@H]2CN1C(=O)c1cc(C)n(-c2cccc(Cl)c2)n1 (racemic) [‘10010] | 1.0911
Cc1cc(C(=O)N2CC3(CCC3)[C@H]2[C@H]2CCCO2)nn1-c1cccc(C(F)(F)F)c1 [‘1651] | 2.895
Cc1cc(C(=O)N2CC3(CCC3)[C@H]2[C@@H]2CCCO2)nn1-c1cccc(C(F)(F)F)c1 [‘5490] | 2.71
Cc1cc(C(=O)N2CC3(CCC3)[C@@H]2[C@@H]2CCCO2)nn1-c1cccc(C(F)(F)F)c1 [‘3386] | 1.2761

* * *

The following compounds are shown together with reported concentration at 120 min values.
assay: Pharmacokinetics: plasma, brain, CSF; details: male, CD-1, mouse, CSF, intraperitoneal, 0.2 mg/kg

compoundStructure | resultUnits | concentration at 120 min
Cc1cc(C(=O)NC(C)(c2ccco2)c2ccco2)nn1-c1cccc(C(F)(F)F)c1 | ng/mL | 0
COC(=O)[C@@](C)(NC(=O)c1cc(C)n(-c2cccc(C(F)(F)F)c2)n1)c1cccs1 | ng/mL | 0

* * *

target: CB1 (rCB1) (Rattus norvegicus, UniProt P20272); test: Single-point radioligand displacement screen; type: binding; settings: Figure 1c source data, replicate 3
Sequence (P20272 whole entry): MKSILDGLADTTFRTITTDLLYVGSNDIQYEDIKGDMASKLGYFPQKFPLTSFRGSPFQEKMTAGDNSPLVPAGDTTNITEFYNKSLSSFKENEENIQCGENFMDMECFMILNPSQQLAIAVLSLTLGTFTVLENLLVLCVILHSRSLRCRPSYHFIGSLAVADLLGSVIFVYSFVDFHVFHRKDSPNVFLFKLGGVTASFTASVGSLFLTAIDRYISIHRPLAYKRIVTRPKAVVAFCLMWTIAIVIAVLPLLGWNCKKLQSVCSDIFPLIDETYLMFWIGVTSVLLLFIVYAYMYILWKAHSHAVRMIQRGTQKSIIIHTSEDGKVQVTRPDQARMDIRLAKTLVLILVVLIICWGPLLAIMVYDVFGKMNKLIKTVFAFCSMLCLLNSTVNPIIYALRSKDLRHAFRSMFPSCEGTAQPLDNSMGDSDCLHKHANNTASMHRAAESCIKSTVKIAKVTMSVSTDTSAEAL
Tag: true (1) if measured rep3_displacement is not below 20, false (0) if it is.

compound | qualitativeLabel
Cc1c(C(=O)OCC2CSc3ccccc3O2)cnn1Cc1ccccc1 (stereo not drawn) | true (1)
O=C(c1ccccc1CS(=O)(=O)c1ccccc1)N1CCC(c2cccc(F)c2)C1 (stereo not drawn) | true (1)
COC1CCn2cc(C(=O)NCC(Cc3ccccc3)c3ccccc3)nc2C1 (stereo not drawn) | false (0)
O=C(CCc1ccccc1)c1cn(C2(c3ccc(F)cc3)CCOCC2)nn1 | true (1)
CC(O)C1CCCN(C(=O)c2cc(Oc3cccc(Br)c3)ccn2)C1 (stereo not drawn) | false (0)
CCCCCCC1(c2cc(O)c3c(c2)OC(C)(C)[C@@H]2CC[C@@H](O)C[C@@H]32)CCC1 [AM2389, reference compound] | true (1)
COCCOc1cc(C(=O)N2CCCC(CC3CCOC3)C2)nc2ccccc12 (stereo not drawn) | false (0)
O=C(OCc1nc2ccccc2s1)c1c2c(nc3ccccc13)CCC2 | false (0)

* * *

molecular target: hCB1 (Homo sapiens, UniProt P21554); test: bioSensAll ebBRET signaling profiling, hCB1; format: cell-based; parameters: host or cells: HEK293SL cells, transient PEI transfection; conditions: Gi1 biosensor; Log [Compound] (M) -6.31878
Sequence (P21554 whole entry): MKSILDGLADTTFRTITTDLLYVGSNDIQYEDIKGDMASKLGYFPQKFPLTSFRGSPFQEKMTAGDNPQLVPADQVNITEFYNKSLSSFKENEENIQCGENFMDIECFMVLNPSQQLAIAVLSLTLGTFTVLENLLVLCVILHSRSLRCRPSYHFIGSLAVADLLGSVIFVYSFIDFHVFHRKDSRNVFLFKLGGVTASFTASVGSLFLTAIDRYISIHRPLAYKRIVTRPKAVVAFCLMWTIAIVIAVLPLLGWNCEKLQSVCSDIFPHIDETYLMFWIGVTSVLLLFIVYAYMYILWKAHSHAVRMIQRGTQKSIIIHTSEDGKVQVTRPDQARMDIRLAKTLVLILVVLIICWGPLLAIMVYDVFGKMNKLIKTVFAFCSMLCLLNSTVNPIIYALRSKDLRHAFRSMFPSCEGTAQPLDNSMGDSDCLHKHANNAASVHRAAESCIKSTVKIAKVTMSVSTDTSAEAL
measurementKind: Gi1 hCB1 response

molecule | experimentalSystem | measurementKind | testValue
COC(=O)[C@@H]1[C@@H]2CCC[C@@H]2CN1C(=O)c1cc(C)n(-c2cccc(C(F)(F)F)c2)n1 [‘6439] | hCB1 (Homo sapiens, UniProt P21554) | Gi1 hCB1 response | 82.8446
COc1cccc(C(NC(=O)c2cc(C)n(-c3cccc(C(F)(F)F)c3)n2)c2ccco2)c1 (centres unmarked) [‘1087] | hCB1 (Homo sapiens, UniProt P21554) | Gi1 hCB1 response | -17.0885
COC(=O)[C@](C)(NC(=O)c1cc(C)n(-c2cccc(C(F)(F)F)c2)n1)c1cccs1 [‘8690] | hCB1 (Homo sapiens, UniProt P21554) | Gi1 hCB1 response | 81.5241
Cc1cc(C(=O)N2CC3(CCC3)[C@H]2[C@H]2CCCO2)nn1-c1cccc(C(F)(F)F)c1 [‘1651] | hCB1 (Homo sapiens, UniProt P21554) | Gi1 hCB1 response | 22.4595
Cc1cc(C(=O)NC(c2ccccc2)c2ccco2)nn1-c1cccc(C(F)(F)F)c1 (centres unmarked) [‘1081] | hCB1 (Homo sapiens, UniProt P21554) | Gi1 hCB1 response | 42.1551
Cc1cc(C(=O)NC(c2ccco2)c2ccco2)nn1-c1cccc(C(F)(F)F)c1 [‘1090] | hCB1 (Homo sapiens, UniProt P21554) | Gi1 hCB1 response | 61.1346
COC(=O)[C@@H]1[C@@H]2CC[C@@H]2CN1C(=O)c1cc(C)n(-c2cccc(C(F)(F)F)c2)n1 [‘6448] | hCB1 (Homo sapiens, UniProt P21554) | Gi1 hCB1 response | 64.6261
COC(=O)C(NC(=O)c1cc(C)n(-c2cccc(C(F)(F)F)c2)n1)c1cccs1 (centres unmarked) [‘60154] | hCB1 (Homo sapiens, UniProt P21554) | Gi1 hCB1 response | 90.7452
Cc1cc(C(=O)NC(c2ccccc2)c2ccco2)nn1-c1cccc(C#N)c1 (centres unmarked) [‘12565] | hCB1 (Homo sapiens, UniProt P21554) | Gi1 hCB1 response | 33.2921
Cc1cc(C(=O)N2CC3(CCC3)[C@@H]2[C@H]2CCCO2)nn1-c1cccc(C(F)(F)F)c1 (single isomer, unassigned) [compound 430] | hCB1 (Homo sapiens, UniProt P21554) | Gi1 hCB1 response | -6.681
COC(=O)C(NC(=O)c1cc(C)n(-c2cccc(F)c2)n1)c1cccs1 (centres unmarked) [‘51486] | hCB1 (Homo sapiens, UniProt P21554) | Gi1 hCB1 response | 38.0146
COC(=O)[C@@H]1[C@@H]2CCC[C@@H]2CN1C(=O)c1cc(C)n(-c2cccc(Cl)c2)n1 (racemic) [‘10010] | hCB1 (Homo sapiens, UniProt P21554) | Gi1 hCB1 response | 42.6475
Cc1cc(C(=O)N2CC3(CCC3)[C@H]2[C@@H]2CCCO2)nn1-c1cccc(C(F)(F)F)c1 [‘5490] | hCB1 (Homo sapiens, UniProt P21554) | Gi1 hCB1 response | 33.6054
Cc1cc(C(=O)N(C)C(c2ccco2)c2ccco2)nn1-c1cccc(C(F)(F)F)c1 [‘4388] | hCB1 (Homo sapiens, UniProt P21554) | Gi1 hCB1 response | -15.6337
Cc1cc(C(=O)N(C)C(c2ccccc2)c2ccco2)nn1-c1cccc(C(F)(F)F)c1 (centres unmarked) [‘1082] | hCB1 (Homo sapiens, UniProt P21554) | Gi1 hCB1 response | -15.9695
CC(=O)C(c1cccs1)N(C)C(=O)c1cc(C)n(-c2cccc(C(F)(F)F)c2)n1 (centres unmarked) [‘6829] | hCB1 (Homo sapiens, UniProt P21554) | Gi1 hCB1 response | 14.2679
Cc1cc(C(=O)N2CC3(CCC3)[C@@H]2[C@@H]2CCCO2)nn1-c1cccc(C(F)(F)F)c1 [‘3386] | hCB1 (Homo sapiens, UniProt P21554) | Gi1 hCB1 response | 6.86
